Recorded CC50 for the following molecules
test system: CD4+ T-cell (CEM); assay: Cytotoxicity: inhibition of CEM cell proliferation; type: cell-based, human; conditions: 50% cytostatic concentration, mean±s.d., n=2–3
Give just the numeric value; µM need not be written.

*Q* Give the reported value of CC50 for this record: CCC(=O)Oc1ccc(COP(=O)(OCc2ccc(OC(=O)CC)cc2)OP(=O)(O)OP(=O)(O)OC[C@@H]2C=C[C@H](n3cc(C)c(=O)[nH]c3=O)O2)cc1
*A* 57

Continuing:
*Q* Give the reported value of CC50 for this record: CCCCCCCCC(=O)Oc1ccc(COP(=O)(OCc2ccc(OC(=O)CCCCCCCC)cc2)OP(=O)(O)OP(=O)(O)OC[C@@H]2C=C[C@H](n3cc(C)c(=O)[nH]c3=O)O2)cc1
*A* 52

*Q* Give the reported value of CC50 for this record: CCCCCCCCCCCC(=O)Oc1ccc(COP(=O)(OCc2ccc(OC(=O)CCCCCCCCCCC)cc2)OP(=O)(O)OP(=O)(O)OC[C@@H]2C=C[C@H](n3cc(C)c(=O)[nH]c3=O)O2)cc1
*A* 26

*Q* Give the reported value of CC50 for this record: CCCCC(=O)Oc1ccc(COP(=O)(OCc2ccc(OC(=O)CCCC)cc2)OP(=O)(O)OP(=O)(O)OC[C@@H]2C=C[C@H](n3cc(C)c(=O)[nH]c3=O)O2)cc1
*A* 58

*Q* Give the reported value of CC50 for this record: CCCCCCCCCCCCOC(=O)Oc1ccc(COP(=O)(OCc2ccc(OC(=O)OCCCCCCCCCCCC)cc2)OP(=O)(O)OP(=O)(O)OC[C@@H]2C=C[C@H](n3cc(C)c(=O)[nH]c3=O)O2)cc1
*A* 41

*Q* Give the reported value of CC50 for this record: CCCCCCCC/C=C\CCCCCCCC(=O)Oc1ccc(COP(=O)(OCc2ccc(OC(=O)CCCCCCC/C=C\CCCCCCCC)cc2)OP(=O)(O)OP(=O)(O)OC[C@@H]2C=C[C@H](n3cc(C)c(=O)[nH]c3=O)O2)cc1
*A* 25

*Q* Give the reported value of CC50 for this record: CCCCCCC(=O)Oc1ccc(COP(=O)(OCc2ccc(OC(=O)CCCCCC)cc2)OP(=O)(O)OP(=O)(O)OC[C@@H]2C=C[C@H](n3cc(C)c(=O)[nH]c3=O)O2)cc1
*A* 74

*Q* Give the reported value of CC50 for this record: CC(=O)Oc1ccc(COP(=O)(OCc2ccc(OC(C)=O)cc2)OP(=O)(O)OP(=O)(O)OC[C@@H]2C=C[C@H](n3cc(C)c(=O)[nH]c3=O)O2)cc1
*A* 63

*Q* Give the reported value of CC50 for this record: CCCCCCCCCCCCCCCCCC(=O)Oc1ccc(COP(=O)(OCc2ccc(OC(=O)CCCCCCCCCCCCCCCCC)cc2)OP(=O)(O)OP(=O)(O)OC[C@@H]2C=C[C@H](n3cc(C)c(=O)[nH]c3=O)O2)cc1
*A* 29

*Q* Give the reported value of CC50 for this record: CCCCCCCCOC(=O)Oc1ccc(COP(=O)(OCc2ccc(OC(=O)OCCCCCCCC)cc2)OP(=O)(O)OP(=O)(O)OC[C@@H]2C=C[C@H](n3cc(C)c(=O)[nH]c3=O)O2)cc1
*A* 51

====

assay: Chemical hydrolysis in PBS, pH 7.3; format: physicochemical; conditions: removal of first masking unit (half-lives of 3); PBS pH 7.3, 37 °C
Mark each entry 1 (yes) if its t1/2(1) PBS, pH=7.3 sits below 50 h, and 0 (no) for all others.

Worked set:
*Q* Below 50 h on t1/2(1) PBS, pH=7.3? Entry COC(=O)Oc1ccc(COP(=O)(OCc2ccc(OC(=O)OC)cc2)OP(=O)(O)OP(=O)(O)OC[C@@H]2C=C[C@H](n3cc(C)c(=O)[nH]c3=O)O2)cc1
*A* 1 (yes)

*Q* Below 50 h on t1/2(1) PBS, pH=7.3? Entry CCCCCCCCOC(=O)N(C)CCN(C)C(=O)Oc1ccc(COP(=O)(OCc2ccc(OC(=O)N(C)CCN(C)C(=O)OCCCCCCCC)cc2)OP(=O)(O)OP(=O)(O)OCC2C=CC(n3cc(C)c(=O)[nH]c3=O)O2)cc1 (centres unmarked)
*A* 1 (yes)

*Q* Below 50 h on t1/2(1) PBS, pH=7.3? Entry CCCCCCCCCCCC(=O)Oc1ccc(COP(=O)(OCc2ccc(OC(=O)CCCCCCCCCCC)cc2)OP(=O)(O)OP(=O)(O)OC[C@@H]2C=C[C@H](n3cc(C)c(=O)[nH]c3=O)O2)cc1
*A* 0 (no)

*Q* Below 50 h on t1/2(1) PBS, pH=7.3? Entry CC(=O)Oc1ccc(COP(=O)(OCc2ccc(OC(C)=O)cc2)OP(=O)(O)OP(=O)(O)OC[C@@H]2C=C[C@H](n3cc(C)c(=O)[nH]c3=O)O2)cc1
*A* 1 (yes)

Turning now to a further record.
*Q* Below 50 h on t1/2(1) PBS, pH=7.3? Entry CCCCCCCCC(=O)Oc1ccc(COP(=O)(OCc2ccc(OC(=O)CCCCCCCC)cc2)OP(=O)(O)OP(=O)(O)OC[C@@H]2C=C[C@H](n3cc(C)c(=O)[nH]c3=O)O2)cc1
*A* 0 (no)

====

test system: HIV-1(IIIB); assay: Anti-HIV activity assay, HIV-1 in wild-type CEM/0 cells; assay type: cell-based; conditions: HIV-induced giant cell formation, mean±s.d., n=2–3
Recorded pEC50 for the following molecules
# reply with the number alone; pEC50 is -log10 of concentration in mol/L

*Q* Give the reported value of pEC50 for this record: CCCCCCCC/C=C\CCCCCCCC(=O)Oc1ccc(COP(=O)(OCc2ccc(OC(=O)CCCCCCC/C=C\CCCCCCCC)cc2)OP(=O)(O)OP(=O)(O)OC[C@@H]2C=C[C@H](n3cc(C)c(=O)[nH]c3=O)O2)cc1
*A* 6.52

*Q* Give the reported value of pEC50 for this record: COC(=O)Oc1ccc(COP(=O)(OCc2ccc(OC(=O)OC)cc2)OP(=O)(O)OP(=O)(O)OC[C@@H]2C=C[C@H](n3cc(C)c(=O)[nH]c3=O)O2)cc1
*A* 6.40

*Q* Give the reported value of pEC50 for this record: CCCCCCCCCCCCOC(=O)Oc1ccc(COP(=O)(OCc2ccc(OC(=O)OCCCCCCCCCCCC)cc2)OP(=O)(O)OP(=O)(O)OC[C@@H]2C=C[C@H](n3cc(C)c(=O)[nH]c3=O)O2)cc1
*A* 6.30

*Q* Give the reported value of pEC50 for this record: CCCCCCCCCCCCCCCC(=O)Oc1ccc(COP(=O)(OCc2ccc(OC(=O)CCCCCCCCCCCCCCC)cc2)OP(=O)(O)OP(=O)(O)OC[C@@H]2C=C[C@H](n3cc(C)c(=O)[nH]c3=O)O2)cc1
*A* 6.21

*Q* Give the reported value of pEC50 for this record: CCCCCCCCCCCCCCCCCC(=O)Oc1ccc(COP(=O)(OCc2ccc(OC(=O)CCCCCCCCCCCCCCCCC)cc2)OP(=O)(O)OP(=O)(O)OC[C@@H]2C=C[C@H](n3cc(C)c(=O)[nH]c3=O)O2)cc1
*A* 6.77

====

test: Enzyme-catalysed hydrolysis in CEM cell extracts; conditions: human CEM cell extract, 37 °C
Mark each entry True if its t1/2(1) CEM sits below 2 h, and False for all others.

Worked set:
*Q* Below 2 h on t1/2(1) CEM? Entry CCCCCCCCCCCCOC(=O)Oc1ccc(COP(=O)(OCc2ccc(OC(=O)OCCCCCCCCCCCC)cc2)OP(=O)(O)OP(=O)(O)OC[C@@H]2C=C[C@H](n3cc(C)c(=O)[nH]c3=O)O2)cc1 [3n]
*A* False

*Q* Below 2 h on t1/2(1) CEM? Entry CCCCCCCC/C=C\CCCCCCCC(=O)Oc1ccc(COP(=O)(OCc2ccc(OC(=O)CCCCCCC/C=C\CCCCCCCC)cc2)OP(=O)(O)OP(=O)(O)OC[C@@H]2C=C[C@H](n3cc(C)c(=O)[nH]c3=O)O2)cc1 [3k]
*A* False

*Q* Below 2 h on t1/2(1) CEM? Entry CCCCCCCCCCCCCCCCCC(=O)Oc1ccc(COP(=O)(OCc2ccc(OC(=O)CCCCCCCCCCCCCCCCC)cc2)OP(=O)(O)OP(=O)(O)OC[C@@H]2C=C[C@H](n3cc(C)c(=O)[nH]c3=O)O2)cc1 [3j, γ-Bis-(4-octadecanoyloxybenzyl)-d4TTP]
*A* False

*Q* Below 2 h on t1/2(1) CEM? Entry CCCCCCCCCCCCCCCCCC(=O)Oc1ccc(COP(=O)(O)OP(=O)(O)OP(=O)(O)OC[C@@H]2C=C[C@H](n3cc(C)c(=O)[nH]c3=O)O2)cc1 [4j, γ-Mono-(4-octadecanoyloxybenzyl)-d4TTP]
*A* False

*Q* Below 2 h on t1/2(1) CEM? Entry CCCCCCCCCCCC(=O)Oc1ccc(COP(=O)(OCc2ccc(OC(=O)CCCCCCCCCCC)cc2)OP(=O)(O)OP(=O)(O)OC[C@@H]2C=C[C@H](n3cc(C)c(=O)[nH]c3=O)O2)cc1 [3g, γ-Bis-(4-dodecanoyloxybenzyl)-d4TTP]
*A* False

*Q* Below 2 h on t1/2(1) CEM? Entry CCCCC(=O)Oc1ccc(COP(=O)(OCc2ccc(OC(=O)CCCC)cc2)OP(=O)(O)OP(=O)(O)OC[C@@H]2C=C[C@H](n3cc(C)c(=O)[nH]c3=O)O2)cc1 [3c, γ-Bis-(4-pentanoyloxybenzyl)-d4TTP]
*A* True

Continuing:
*Q* Below 2 h on t1/2(1) CEM? Entry CCCCCCCCCCCCCCCC(=O)Oc1ccc(COP(=O)(OCc2ccc(OC(=O)CCCCCCCCCCCCCCC)cc2)OP(=O)(O)OP(=O)(O)OC[C@@H]2C=C[C@H](n3cc(C)c(=O)[nH]c3=O)O2)cc1 [3i, γ-Bis-(4-hexadecanoyloxybenzyl)-d4TTP]
*A* False

*Q* Below 2 h on t1/2(1) CEM? Entry CCCCCCC(=O)Oc1ccc(COP(=O)(OCc2ccc(OC(=O)CCCCCC)cc2)OP(=O)(O)OP(=O)(O)OC[C@@H]2C=C[C@H](n3cc(C)c(=O)[nH]c3=O)O2)cc1 [3d, γ-Bis-(4-heptanoyloxybenzyl)-d4TTP]
*A* True

*Q* Below 2 h on t1/2(1) CEM? Entry CCCCCCCCCC(=O)Oc1ccc(COP(=O)(OCc2ccc(OC(=O)CCCCCCCCC)cc2)OP(=O)(O)OP(=O)(O)OC[C@@H]2C=C[C@H](n3cc(C)c(=O)[nH]c3=O)O2)cc1 [3f, γ-Bis-(4-decanoyloxybenzyl)-d4TTP]
*A* False

Attribution: paper PMC4640093
